assay: visual solubility test (apparent solubility in different excipients); assay type: physicochemical; settings: Labrasol (caprylocapryoyl macrogol glyceride), oil or lipid, thermodynamic from solid, in Labrasol (caprylocapryoyl macrogol glyceride)
reported property: solubility (mg/mL)

>  <chemical structure>
CC(=O)N1CCN(C(=O)c2ccc(Nc3nccc(-c4ccc(Cl)cc4)n3)cc2)CC1

>  <units of measure>
mg/mL

>  <recorded number>
26.3

$$$$

* * *

Assay: visual solubility test (apparent solubility in different excipients)
Format: physicochemical
Conditions: Capmul MCM-Lutrol E600 1:1, organic solvent or mixture, thermodynamic from solid, in Capmul MCM-Lutrol E600 1:1
Method: Subsequently in order to analyze the solubility of the anilinopyrimidine of Formula (I) and to identify the preferred excipients, ten solutions of batch FD050007 and ten solution of the starting batch 61569-02 were prepared and analized with a visual solubility test. A data summary for the anilinopyrimidine derivative of Formula (I) apparent solubility in different excipients is given in Table 2.

>  <compound>
CC(=O)N1CCN(C(=O)c2ccc(Nc3nccc(-c4ccc(Cl)cc4)n3)cc2)CC1 [Formula 61569-02]

>  <units of measure>
mg/mL

>  <solubility>
115

$$$$
